tested on: MYB; assay: 3' UTR reporter interaction score (median-centred robust z-score of log2 firefly/Renilla activity); higher = less repression of the 3' UTR reporter; conditions: HEK293T; 48 h
Attribute measured: 3' UTR reporter interaction score
Number only, please.

Previously resolved entries follow.
# Sequence record, Test result
measured = [
    ("CAACCUGGAGGACUCCAUGCUG", 1.15),
    ("UGUCUUACUCCCUCAGGCACAU", -0.229),
    ("CAUGCCUUGAGUGUAGGACCGU", 0.293),
    ("AGCAGCAUUGUACAGGGCUAUCA", -2.18),
    ("GCGACCCACUCUUGGUUUCCA", 0.396),
]

Can you look up the measured 3' UTR reporter interaction score of AUCGCUGCGGUUGCGAGCGCUGU for me?
1.13

Can you look up the measured 3' UTR reporter interaction score of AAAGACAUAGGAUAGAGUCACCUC for me?
0.438

====

tested on: NOTCH1; assay: 3' UTR reporter interaction score (median-centred robust z-score of log2 firefly/Renilla activity); higher = less repression of the 3' UTR reporter; conditions: HEK293T; 48 h
Attribute measured: 3' UTR reporter interaction score
Number only, please.

Previously resolved entries follow.
# Sequence record, Attribute measured, Test result
data = [
    ("GAGGUUGUCCGUGGUGAGUUCG", "3' UTR reporter interaction score", 0.138),
    ("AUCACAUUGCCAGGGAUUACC", "3' UTR reporter interaction score", -0.965),
    ("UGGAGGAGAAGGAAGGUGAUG", "3' UTR reporter interaction score", -0.968),
    ("UGGUCUAGGAUUGUUGGAGGAG", "3' UTR reporter interaction score", -3.72),
    ("UCAGGCUCAGUCCCCUCCCGAU", "3' UTR reporter interaction score", -0.181),
]

Can you look up the measured 3' UTR reporter interaction score of CUCCAGAGGGAAGUACUUUCU for me?
-0.176

====

system: FBXW7; test: 3' UTR reporter interaction score (median-centred robust z-score of log2 firefly/Renilla activity); higher = less repression of the 3' UTR reporter; conditions: HEK293T; 48 h
Attribute measured: 3' UTR reporter interaction score
Number only, please.

# Sequence record, System under test, 3' UTR reporter interaction score
data = [
    ("AAAGUGCUUCUCUUUGGUGGGUU", "FBXW7", 0.685),
    ("UACUGCAUCAGGAACUGAUUGGAU", "FBXW7", 0.0205),
    ("GUGUCUUUUGCUCUGCAGUCA", "FBXW7", -1.58),
]

Now consider a different sequence.
Return 3' UTR reporter interaction score measured with FBXW7 given this sequence: AAAGUGCUGCGACAUUUGAGCGU
0.296

====

system: TP53; test: 3' UTR reporter interaction score (median-centred robust z-score of log2 firefly/Renilla activity); higher = less repression of the 3' UTR reporter; conditions: HEK293T; 48 h
Record fulfilled whenever 3' UTR reporter interaction score is at -0.1 or higher; record not fulfilled when lower.

# Sequence record, Group label
data = [
    ("UCGGAUCCGUCUGAGCUUGGCU", "not fulfilled"),
]

Hi team, for CCUCUGGGCCCUUCCUCCAG , is the recorded 3' UTR reporter interaction score at or above -0.1?
fulfilled

Hi team, for UAGCAGCACAUCAUGGUUUACA , is the recorded 3' UTR reporter interaction score at or above -0.1?
not fulfilled

Hi team, for UAAGUGCUUCCAUGUUUGAGUGU , is the recorded 3' UTR reporter interaction score at or above -0.1?
not fulfilled

Hi team, for UCGUACCGUGAGUAAUAAUGC , is the recorded 3' UTR reporter interaction score at or above -0.1?
fulfilled

Hi team, for UAUGGCUUUUCAUUCCUAUGUG , is the recorded 3' UTR reporter interaction score at or above -0.1?
fulfilled

====

Parameter: 3' UTR reporter interaction score. Scope: all listed entries.
test system: NOTCH1; test: 3' UTR reporter interaction score (median-centred robust z-score of log2 firefly/Renilla activity); higher = less repression of the 3' UTR reporter; conditions: HEK293T; 48 h
Number only, please.

Previously resolved entries follow.
# Sequence record, System under test, 3' UTR reporter interaction score
rows = [
    ("AUGACCUAUGAAUUGACAGAC", "NOTCH1", -0.0227),
    ("UAAUCUCAGCUGGCAACUGUG", "NOTCH1", -0.148),
    ("UGUGCAAAUCCAUGCAAAACUGA", "NOTCH1", -0.355),
    ("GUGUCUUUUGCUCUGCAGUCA", "NOTCH1", -1.08),
    ("UAAGUGCUUCCAUGUUUUAGUAG", "NOTCH1", 1.36),
    ("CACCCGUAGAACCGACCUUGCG", "NOTCH1", -0.125),
    ("UGGUUGACCAUAGAACAUGCGC", "NOTCH1", 2.11),
    ("GAGCUUAUUCAUAAAAGUGCAG", "NOTCH1", -0.458),
    ("CUCUUGAGGGAAGCACUUUCUGUU", "NOTCH1", -0.119),
    ("UGGACGGAGAACUGAUAAGGGU", "NOTCH1", -0.401),
]

Can you look up the measured 3' UTR reporter interaction score of AAUCGUACAGGGUCAUCCACUU for me?
0.0951

Can you look up the measured 3' UTR reporter interaction score of AGUGGGGAACCCUUCCAUGAGGA for me?
-0.0192

Can you look up the measured 3' UTR reporter interaction score of UAGGUAGUUUCAUGUUGUUGG for me?
-0.0228

Can you look up the measured 3' UTR reporter interaction score of AAUCCUUGGAACCUAGGUGUGAGU for me?
-0.594

Can you look up the measured 3' UTR reporter interaction score of GGUAGAUUCUCCUUCUAUGAG for me?
-0.435

====

tested on: TP53; test: 3' UTR reporter interaction score (median-centred robust z-score of log2 firefly/Renilla activity); higher = less repression of the 3' UTR reporter; settings: HEK293T; 48 h
Parameter: 3' UTR reporter interaction score. Scope: all listed entries.
Number only, please.

# Sequence record, 3' UTR reporter interaction score
rows = [
    ("CAUUAUUACUUUUGGUACGCG", 0.0619),
    ("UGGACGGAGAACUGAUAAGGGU", 0.461),
    ("AAAGUGCCUCCUUUUAGAGUGU", -0.0121),
    ("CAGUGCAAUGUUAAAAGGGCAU", -0.31),
    ("CACUCAGCCUUGAGGGCACUUUC", 0.0719),
]

Can you look up the measured 3' UTR reporter interaction score of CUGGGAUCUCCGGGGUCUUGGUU for me?
-1.29

Can you look up the measured 3' UTR reporter interaction score of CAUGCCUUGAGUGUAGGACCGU for me?
0.524

Can you look up the measured 3' UTR reporter interaction score of UCAGUGCAUGACAGAACUUGGG for me?
-0.341

Can you look up the measured 3' UTR reporter interaction score of UGAGGUAGUAAGUUGUAUUGUU for me?
-0.165

Can you look up the measured 3' UTR reporter interaction score of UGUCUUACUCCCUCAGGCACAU for me?
0.565

====

test system: EZH2; assay: 3' UTR reporter interaction score (median-centred robust z-score of log2 firefly/Renilla activity); higher = less repression of the 3' UTR reporter; conditions: HEK293T; 48 h
Record TRUE whenever 3' UTR reporter interaction score is at -0.1 or higher; record FALSE when lower.

# Sequence record, Group label
measured = [
    ("UACCCUGUAGAACCGAAUUUGU", "TRUE"),
    ("CAACGGAAUCCCAAAAGCAGCU", "TRUE"),
    ("GCAAAGCACACGGCCUGCAGAGA", "TRUE"),
    ("AGUAUUCUGUACCAGGGAAGGU", "FALSE"),
    ("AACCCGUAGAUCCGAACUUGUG", "TRUE"),
]

Hi team, for UGCUUCCUUUCAGAGGGU , is the recorded 3' UTR reporter interaction score at or above -0.1?
TRUE

Hi team, for UGUAAACAUCCUUGACUGGA , is the recorded 3' UTR reporter interaction score at or above -0.1?
FALSE

Hi team, for AGCUGGUGUUGUGAAUC , is the recorded 3' UTR reporter interaction score at or above -0.1?
FALSE

====

system: EZH2; assay: 3' UTR reporter interaction score (median-centred robust z-score of log2 firefly/Renilla activity); higher = less repression of the 3' UTR reporter; settings: HEK293T; 48 h
Parameter: 3' UTR reporter interaction score. Scope: all listed entries.

# Sequence record, System under test, 3' UTR reporter interaction score
records = [
    ("UUGUGUCAAUAUGCGAUGAUGU", "EZH2", 0.77),
    ("ACAGUCUGCUGAGGUUGGAGC", "EZH2", 0.0759),
    ("UAUGUGCCUUUGGACUACAUCG", "EZH2", -0.568),
    ("AGUGUGGCUUUCUUAGAGC", "EZH2", -0.421),
]

Now consider a different sequence.
Return 3' UTR reporter interaction score measured with EZH2 given this sequence: CUUUUUGCGGUCUGGGCUUGC
0.547
